# Test: yeast display, Sf9 membrane polyspecificity reagent, FACS + sequencing; frameworks hold sequencing errors
Measured property: polyreactivity (PSR sort gate)

Worked examples follow.
Using the record for "QVQLVESGGGLVQAGGSLRLSCAASGRIFRRNTMGWSRPAPGTERELVAAITSRGGSTYYADSVKGRFTISRDNAKNTVYLQMNSLKPADTAVYYCNTRVVPEIYDYWGQGTQVTVSS" , report its polyreactivity (PSR sort gate).
high polyreactivity

For "QVQLVESGGGLVQAGGSLRLSCAASGSTFVVNDMGWYRQAPGKERELVAAIRSGTSTNYADSVKGRFTISRDNAKNTVYLQMNSLKPEDTAVYYCNAAITQFAWNRYTLIYDYWGQGTQVTVSS" then?
low polyreactivity

Repeat with "QVQLVESGGGLVQAGGSLRLSCAASGIIIGNNAMGWYRQAPGKERELVAAISRRGGSTYYADSVKGRFTISRDNAKNTVYLQMNSLKPEDTAVYYCAADIYRYNSYDYWGQGTQVTVSS"
low polyreactivity

Now consider "QVQLVESGGGLVQAGGSLRLSCAASGFTFGAYAMGSYRQAPGKERELVASINWSGGSTYYADSVKGRFTISRDYAMNTVYFQMNRLKPEDTAVYYCAARESYPGYGYDHWGQGTQVTVSS" and answer again.
low polyreactivity

Same again, this time with "QVQLVESGGGLVQAGGSLRLSCAASGRIFGDYAMGWYRQAPGKERELVAAINSSGTSTNYADSVKGRFTISRDNAKNTVYLQMNSLKPEDTAVYYCNAEGTYRPDYDSWGQGTQVTVSS"
low polyreactivity

---
Any idea what polyreactivity (PSR sort gate) was measured for "QVELVESGGGLVQAGGSLRLSCAGSGIIFPYYVMGWYRQAPGKARELVAAINSGGRTYYADSVKGRFTISRDNAKNSVYLQMNSLNREDTAVYYCAATQSTNRMDHWGQGTQVTVSS" ?
low polyreactivity

Request: "QVQLVESGGGLVQAGGSLRLSCAASGRTFYPYAKGWYRQAPGKERELVAAIRWSGGSTYYADSVKGRFTISRDNAKNTVYLQMNSLKPEDTAVYYCNADWKSYRGPKFDYWGQGTQVTVSS"
low polyreactivity

For "QVQLVESGGGLVQAGGSLRLSCAASGRIFYLNAMGWYRQAPGKERELVATISSGGSTNYADSVKGRFTISRDNAKNTVYLQMNSLKPEDTAVYYCARKSLRYSYVYRDYWGQGTQVTVSS" then?
low polyreactivity

Input "QVQLVESGGGLVQAGGSLRLSSAASGSTLQYNAMGWYRQAPGKERELVASITWSDGSTYYADSVKGRFTISRDNAKNTVYLQMNSLKPEDTAVYYCNRDDQPALWSSGGYNYWGQGTQVTVSS"
high polyreactivity

Param item: "QVQLVESGRGLVQAGVSLRLSCADSGSTFDYNAMGCYRQATGKERELVPVNRSGGTTYYADSVKGRFTISRDNANNTVYLQMNSLKPEDTAVYYCAAAFQRRAGSYGGSRRYGYWGQVTQVTVSS"
high polyreactivity

Please do the same for "QVQLVESVGRLVQAGGSLRLSCAASGIIFSVNAMGWYRQAPGKERELVAAITYSGGSTYYADSVKGRFTISRDNAKNTVYLQMNSLKPEDTAVYYCATSYYSSGTWSEYYYWCQGTQVTVSS" as well.
high polyreactivity

Next record, please: "QVQLVESGGGLVQAGGSLRLSCADSGRIFVHHDMGRYRQAPGKVRELVATITSGGSTYYADSVKGRFTISRDNAKNTVYLQMNSLKPEDTAVYYCAADSWDYDSRMDYWGQGTQVTVSS"
low polyreactivity

And "QVQLVESVGGLVQAGGSLRLSCAASGRIFTSYAMGWYRQAPGKERELVAAIRFNGDSTYYADSVKGSFTISRDNAKNTVYLQMNSLKPEDTAVYYCAASRYRGSFRYTEYYWGQGTQVTVSS" ?
high polyreactivity
